system: Staphylococcus aureus; assay: Antibacterial activity against methicillin resistant Staphylococcus aureus assessed as inhibition of bacterial growth incubated for 18 hrs by CLSI based serial agar dilution method; type: functional; conditions: Staphylococcus aureus, read-out: MIC
Returns: string. Value is yes (1) if measured MIC is below 0.2 mg/L, and no (0) if it is greater than or equal to it.

Could you please tell me whether MIC recorded for CCC1CN(c2c(F)cc3c(=O)c(C(=O)O)cn(C4CC4)c3c2OC)CCC1N (configuration not stated) is less than 0.2 mg/L?
yes (1)

And the next one, COc1c(N2CCC(NC(C)=O)C(C)(C)C2)c(F)cc2c(=O)c(C(=O)O)cn(C3CC3)c12 (configuration not stated) ?
no (0)

Entry to check: CCNC1CCN(c2c(F)cc3c(=O)c(C(=O)O)cn(C4CC4)c3c2OC)CC1C (configuration not stated)
no (0)

What about CCn1cc(C(=O)O)c(=O)c2cc(F)c(N3CCC(N)C(C)(C)C3)c(OC)c21 (configuration not stated) ?
no (0)

Repeat with CC1(C)CN(c2nc3c(cc2F)c(=O)c(C(=O)O)cn3C2CC2)CCC1N (configuration not stated)
no (0)

What do you get for COc1c(N2CCC(NC3CC3)C(C)C2)c(F)cc2c(=O)c(C(=O)O)cn(C3CC3)c12 (configuration not stated) ?
no (0)

For CONC1CCN(c2c(F)cc3c(=O)c(C(=O)O)cn(C4CC4)c3c2OC)CC1(C)C (configuration not stated) then?
yes (1)

And the next one, COc1c(N2CC[C@@H](N)C(C)(C)C2)c(F)c(N)c2c(=O)c(C(=O)O)cn(C3CC3)c12 ?
no (0)

And CC1COc2c(N3CCN(C)CC3)c(F)cc3c(=O)c(C(=O)O)cn1c23 (configuration not stated) ?
no (0)

Now the same for COc1c(N2CC[C@H](N)C(C)(C)C2)c(F)cc2c(=O)c(C(=O)O)cn(C3CC3)c12
yes (1)

Queued: CC1(C)CN(c2ccc3c(=O)c(C(=O)O)cn(-c4ccc(F)cc4F)c3n2)CCC1N (configuration not stated)
no (0)

Entry COc1c(N2CC[C@@H](N)C(C)(C)C2)c(F)cc2c(=O)c(C(=O)O)cn(C3CC3)c12 please
yes (1)

Field entry: COc1c(N2CC(C)C(N)C(C)(C)C2)c(F)cc2c(=O)c(C(=O)O)cn(C3CC3)c12 (configuration not stated)
yes (1)

###

For each of the compounds below, state its MIC.
test system: Staphylococcus aureus; experiment: Antibacterial activity against methicillin resistant Staphylococcus aureus assessed as inhibition of bacterial growth incubated for 18 hrs by CLSI based serial agar dilution method; format: functional; settings: Staphylococcus aureus, read-out: MIC
Dear colleague, please return just the value in µg/mL, with no unit written.

# MIC lookup, item COc1c(N2CC(C)C(N)C(C)C2)c(F)cc2c(=O)c(C(=O)O)cn(C3CC3)c12 (stereo in doubt)
0.1

Next up: CNC1CCN(c2c(F)cc3c(=O)c(C(=O)O)cn(C4CC4)c3c2OC)CC1C (stereo not drawn)
0.2

Also check CCC1(C)CN(c2c(F)cc3c(=O)c(C(=O)O)cn(C4CC4)c3c2OC)CCC1N (stereo not drawn)
0.1

Next compound: CNC1C(C)CN(c2c(F)cc3c(=O)c(C(=O)O)cn(C4CC4)c3c2OC)CC1C (stereo not drawn)
0.1

Also Cc1c(F)c(N2CCC(N)C(C)(C)C2)c(F)c2c1c(=O)c(C(=O)O)cn2C1CC1 (stereo not drawn) , if possible.
3.12

Param item: COc1c(N2CCC(N)C(C)(C)C2)c(F)cc2c(=O)c(C(=O)O)cn(C3CC3)c12 (stereo in doubt; form 1)
0.05

Okay, and C[C@H]1CCc2c(N3CCC(O)CC3)c(F)cc3c(=O)c(C(=O)O)cn1c23 [LEVONADIFLOXACIN] ?
0.4

Same for CC1(C)CN(c2c(F)c(N)c3c(=O)c(C(=O)O)cn(C4CC4)c3c2F)CCC1N (stereo not drawn)
3.12

Let us now turn to CCNC1CCN(c2c(F)cc3c(=O)c(C(=O)O)cn(C4CC4)c3c2OC)CC1(C)C (stereo not drawn)
0.2

Moving on to COc1c(N2CCC(N(C)C)C(C)(C)C2)c(F)cc2c(=O)c(C(=O)O)cn(C3CC3)c12 (stereo not drawn)
0.2

What do we get for COc1c(N2CCC(N)C(C)C2)c(F)cc2c(=O)c(C(=O)O)cn(C3CC3)c12 (stereo not drawn) ?
0.05

What about COc1c(N2CC(C)C(N(C)C)C(C)C2)c(F)cc2c(=O)c(C(=O)O)cn(C3CC3)c12 (stereo not drawn) ?
0.1

How about COc1c(N2CCC(N)C(C)(C)C2)c(F)c(N)c2c(=O)c(C(=O)O)cn(C3CC3)c12 (stereo not drawn) ?
3.12

Also need COc1c(N2CCC(N)C(C)(C)C2)c(F)c(N)c2c(=O)c(C(=O)O)cn(-c3ccc(F)cc3F)c12 (stereo not drawn) , thanks.
12.5

Proceed to CC1(C)CN(c2cc3c(cc2F)c(=O)c(C(=O)O)cn3C2CC2)CCC1N (stereo not drawn)
12.5

Thanks! And CC1(C)CN(c2c(F)cc3c(=O)c(C(=O)O)cn(C4CC4)c3c2F)CCC1N (stereo not drawn) ?
3.12

Reference source: ChEMBL document CHEMBL5143624
